- experimental.system: Kras and SOS1 (biotin-tagged human Kras loaded with GDP, His-tagged human SOS1) (Homo sapiens, UniProt P01116, G12D)
- Construct: made in house; host or cells: E. coli (stated for Kras only)
- Sequence (P01116 1-188 isoform P01116-2 G12D): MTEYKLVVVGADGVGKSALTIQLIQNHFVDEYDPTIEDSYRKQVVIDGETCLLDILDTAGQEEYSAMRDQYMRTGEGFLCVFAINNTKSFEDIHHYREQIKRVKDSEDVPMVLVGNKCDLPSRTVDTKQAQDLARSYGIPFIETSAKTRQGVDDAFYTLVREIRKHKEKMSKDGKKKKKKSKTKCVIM
- assay: Protein-protein interaction inhibition between Kras and SOS1 (KrasGl2D-SOS PPI) using AlphaScreen
- Format: binding
- condition.context: AlphaScreen; biotin-tagged human Kras loaded with GDP, His-tagged human SOS1; read-out: KRAS G12D-SOS PPI IC50
- Protocol: Protein-Protein Interaction Inhibition Between Kras and SOS1 (KrasGl2D-SOS PPI) Using AlphaScreen Protein-protein interaction inhibition (PPI) between Kras and SOS1 was measured by energy transfer from nickel-conjugated donor beads to streptavidin-conjugated acceptor beads using biotin-tagged human Kras expressed in E. coli and loaded with GDP after purification and His-tagged human SOS1 enzyme. […]
Starred links: 1 amine or outer side, 2 acyl side, 3 side chain; linkers in the order of their positions; H or OH if unused. Positions of bridges follow the written chain, without caps; N, C: chain ends. Non-standard residues stand in square brackets, D forms with d. Residues, ends and D or L forms follow the SMILES beside them. *: point of attachment. hPhe(3-Cl-4-CF3) = N[C@@H](CCc1ccc(C(F)(F)F)c(Cl)c1)C(=O)O; NMePhe(4-CF3) = CN[C@@H](Cc1ccc(C(F)(F)F)cc1)C(=O)O; NMePhe(4-Br) = CN[C@@H](Cc1ccc(Br)cc1)C(=O)O; NMePhe(2-CN) = CN[C@@H](Cc1ccccc1C#N)C(=O)O; NMePhe(4-Me) = CN[C@@H](Cc1ccc(C)cc1)C(=O)O; NMedβ3hAla = C[C@H](CC(=O)[*:2])N(C)[*:1]; Phe(3-I) = N[C@@H](Cc1cccc(I)c1)C(=O)O; NMeCha = CN[C@@H](CC1CCCCC1)C(=O)O; NMeGly(cPr) = CN[C@H](C(=O)O)C1CC1; NMeD = CN[C@@H](CC(=O)O)C(=O)O; NMeL = CN[C@@H](CC(C)C)C(=O)O; NMeV = CN[C@H](C(=O)O)C(C)C; d(β3hA) = C[C@@H](N)CC(=O)O; NMeA = CN[C@@H](C)C(=O)O; NMeAib = CNC(C)(C)C(=O)O; Piperidide = C1CCN(*)CC1; Ac5c = NC1(C(=O)O)CCCC1; Aze = O=C(O)[C@@H]1CCN1; Sar = CNCC(=O)O
assay.endpoint: pIC50
Schema: pIC50 number; meaning minus log10 of the concentration expressed in molar units.

Reference set, count: 3
>>> recorded_number("CC[C@H](C)[C@@H]1NC(=O)[C@H](C)N(C)C(=O)C[C@@H](C)N(C)C(=O)[C@H](CC(C)C)NC(=O)C(C)(C)N(C)C(=O)[C@H](CC(C)C)NC(=O)[C@H](CCc2ccc(C(F)(F)F)c(Cl)c2)NC(=O)CN(C)C(=O)[C@H](Cc2ccc(C(F)(F)F)cc2)N(C)C(=O)[C@@H]2CCN2C(=O)CN(C)C1=O [Compound 1392] (cyclo([Aze][NMePhe(4-CF3)][Sar][hPhe(3-Cl-4-CF3)]L[NMeAib]L[NMedβ3hAla][NMeA]I[Sar]))")
7.55
>>> recorded_number("CC[C@H](C)[C@@H]1NC(=O)[C@H](CC(C)C)N(C)C(=O)C[C@@H](C(=O)N2CCCCC2)N(C)C(=O)[C@H](CC(C)C)NC(=O)C(C)(C)N(C)C(=O)[C@H](Cc2ccccc2)NC(=O)[C@H](Cc2cccc(I)c2)NC(=O)CN(C)C(=O)[C@H](Cc2ccc(C)cc2)N(C)C(=O)[C@@H]2CCN2C(=O)[C@H](C)N(C)C1=O [Compound 1015] ([NMeL]I[NMeA][Aze][NMePhe(4-Me)][Sar][Phe(3-I)]F[NMeAib]L[NMeD]-Piperidide; lactam N-11)")
7.74
>>> recorded_number("CC[C@H](C)[C@@H]1NC(=O)[C@H](CC(C)C)N(C)C(=O)C[C@@H](C)NC(=O)[C@H](C(C)C)N(C)C(=O)C2(CCCC2)NC(=O)[C@@H]2CCCN2C(=O)[C@H](CCc2ccc(C(F)(F)F)c(Cl)c2)NC(=O)CN(C)C(=O)[C@H](Cc2ccc(Br)cc2)N(C)C(=O)CN(C)C(=O)CN(C)C1=O [Compound 1625] (cyclo([Ac5c][NMeV][d(β3hA)][NMeL]I[Sar][Sar][NMePhe(4-Br)][Sar][hPhe(3-Cl-4-CF3)]P))")
8.14

# input Given the molecule CC[C@H](C)[C@@H]1NC(=O)[C@H](CC(C)C)N(C)C(=O)C[C@@H](C)N(C)C(=O)[C@H](C(C)C)N(C)C(=O)C2(CCCC2)NC(=O)[C@@H]2CCCN2C(=O)[C@H](CCc2ccc(C(F)(F)F)c(Cl)c2)NC(=O)CN(C)C(=O)[C@H](Cc2ccccc2C#N)N(C)C(=O)CN(C)C(=O)CN(C)C1=O [Compound 357] (cyclo([Ac5c][NMeV][NMedβ3hAla][NMeL]I[Sar][Sar][NMePhe(2-CN)][Sar][hPhe(3-Cl-4-CF3)]P)) , what is its reported pIC50?
# output 7.66

# input Given the molecule CC[C@H](C)[C@@H]1NC(=O)[C@H](CC(C)C)N(C)C(=O)C[C@@H](C)NC(=O)[C@H](C2CC2)N(C)C(=O)C2(CCCC2)NC(=O)[C@@H]2CCCN2C(=O)[C@H](CCc2ccc(C(F)(F)F)c(Cl)c2)NC(=O)CN(C)C(=O)[C@H](CC2CCCCC2)N(C)C(=O)CN(C)C(=O)CN(C)C1=O [Compound 14] (cyclo([Ac5c][NMeGly(cPr)][d(β3hA)][NMeL]I[Sar][Sar][NMeCha][Sar][hPhe(3-Cl-4-CF3)]P)) , what is its reported pIC50?
# output 6.96
